Reference for the values: patent US20110262445A1

# SYSTEM_TESTED: T1, human IL-23 (human, UniProt P29460 23-328; Q9NPF7 20-189)
# T1 construct: Recombinant (Ebioscience); HIS-tagged in flow cytometry, biotinylated in some assays; also called hIL-23; rhIL-23
# T1 sequence 1: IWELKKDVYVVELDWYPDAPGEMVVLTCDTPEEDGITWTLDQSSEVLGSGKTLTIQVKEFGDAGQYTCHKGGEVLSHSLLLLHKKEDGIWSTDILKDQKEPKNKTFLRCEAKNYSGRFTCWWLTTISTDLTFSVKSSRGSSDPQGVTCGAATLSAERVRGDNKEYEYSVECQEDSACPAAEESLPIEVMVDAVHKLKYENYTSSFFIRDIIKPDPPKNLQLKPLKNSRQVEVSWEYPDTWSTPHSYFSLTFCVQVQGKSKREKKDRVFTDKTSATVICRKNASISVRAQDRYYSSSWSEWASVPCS
# T1 sequence 2: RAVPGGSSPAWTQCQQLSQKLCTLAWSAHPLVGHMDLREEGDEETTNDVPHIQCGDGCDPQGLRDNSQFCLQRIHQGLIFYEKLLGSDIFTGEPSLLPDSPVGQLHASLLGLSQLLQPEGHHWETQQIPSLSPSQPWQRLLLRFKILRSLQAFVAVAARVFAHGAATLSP
# ASSAY_DETAILS: ELISA, coated IL-23
PARAMETER_MEASURED: binding result

Antibody 81 (antibody, human IgG1, kappa, V domains shown) VH: QVQLVQSGAEVKKPGASVKVSCKVSGYTLTDYYLHWVRQAPGKGLEWMGWIDPENGDTEYAPKFQGRVTMTEDTSTDTAYMELSSLRSEDTAVYYCATNKELRYFDVWGQGTMVTVSS VL: EIVMTQSPATLSVSPGERATLSCRASQSISINLHWYQQKPGQAPRLLIYFASQSISGIPARFSGSGSGTEFTLTISSLQSEDFAVYYCQQSNSFPLTFGGGTKVEIKR ... binds
